- target of assay: T1, human adenosine A2A receptor (A2aR) (human, UniProt P29274 1-412)
- T1 construct: Assays used HEK293 cells stably overexpressing human A2aR (BPS Bioscience 79381), human A2aR-expressing CHO cells, or endogenous A2aR on human PBMC; also called human A2aR; hA2aR
- T1 sequence (P29274 whole entry): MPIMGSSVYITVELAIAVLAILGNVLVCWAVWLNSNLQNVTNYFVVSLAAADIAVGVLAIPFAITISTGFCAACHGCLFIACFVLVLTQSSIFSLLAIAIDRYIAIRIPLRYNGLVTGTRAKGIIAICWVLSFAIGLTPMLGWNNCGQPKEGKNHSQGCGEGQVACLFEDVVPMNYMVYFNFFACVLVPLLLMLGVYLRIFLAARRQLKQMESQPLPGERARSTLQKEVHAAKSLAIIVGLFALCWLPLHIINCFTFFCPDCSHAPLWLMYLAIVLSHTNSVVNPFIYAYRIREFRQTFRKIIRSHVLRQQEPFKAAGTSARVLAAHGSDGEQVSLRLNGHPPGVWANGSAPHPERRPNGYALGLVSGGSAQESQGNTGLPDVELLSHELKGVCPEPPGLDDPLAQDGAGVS
- procedure text: flow cytometry, HEK293-hA2aR cells, supernatant 1 ug/ml
Measured MFI, listed per entry for reference.
State the answer as a number, implicitly in MFI.

binder	MFI / MFI
Hu1B5-H4/Hu1B5-L5 (antibody, human IgG1, V domains shown, Human IgG1 FES (L234F, L235E, P331S) and human Ig kappa constant domains) VH: EVQLVQSGAEVKKPGASVKVSCKTSGFTFTRFWMNWVRQAPGQGLEWIGRIDPYDSETQYNHKFWDRATLTVDKSSSTVYMELSSLRSEDTAVYYCGRSLYGKGDYWGQGTTVTVSS VL: DIVMTQSPDSLAVSLGERATINCRSSQSIVHSNGNTYLEWYQQKPGQPPKLLIYKVSNRFSGVPDRFSGSGSGTDFTLTISSLQAEDVAVYYCFQGSHVPLTFGGGTKVEIK	872
Hu1B5-H2/Hu1B5-L3 (antibody, human IgG1, V domains shown, Human IgG1 FES (L234F, L235E, P331S) and human Ig kappa constant domains) VH: EVQLVQSGAEVKKPGASVKVSCKTSGFTFTRFWMNWVRQAPGQGLEWMGRIDPYDSETQYNHKFWDRVTMTVDTSTSTVYMELSSLRSEDTAVYYCGRSLYGKGDYWGQGTTVTVSS VL: DVVMTQSPLSLPVTLGQPASISCRSSQSIVHSNGNTYLEWYQQRPGQSPRLLIYKVSNRFSGVPDRFSGSGSGTDFTLKISRVEAEDVGVYYCFQGSHVPLTFGGGTKVEIK	1870
Hu1B5-H4/Hu1B5-L4 (antibody, human IgG1, V domains shown, Human IgG1 FES (L234F, L235E, P331S) and human Ig kappa constant domains) VH: EVQLVQSGAEVKKPGASVKVSCKTSGFTFTRFWMNWVRQAPGQGLEWIGRIDPYDSETQYNHKFWDRATLTVDKSSSTVYMELSSLRSEDTAVYYCGRSLYGKGDYWGQGTTVTVSS VL: DVVMTQSPLSLPVTPGEPASISCRSSQSIVHSNGNTYLEWYLQKPGQSPQLLIYKVSNRFSGVPDRFSGSGSGTDFTLKISRVEAEDVGVYYCFQGSHVPLTFGGGTKVEIK	1780
Hu1B5-H2.1/Hu1B5-L4 (antibody, human IgG1, V domains shown, Human IgG1 FES (L234F, L235E, P331S) and human Ig kappa constant domains) VH: EVQLVQSGAEVKKPGASVKVSCKTSGFTFTRFWMNWVRQAPGQGLEWIGRIDPYDSETQYNHKFWDRVTMTVDTSTSTVYMELSSLRSEDTAVYYCGRSLYGKGDYWGQGTTVTVSS VL: DVVMTQSPLSLPVTPGEPASISCRSSQSIVHSNGNTYLEWYLQKPGQSPQLLIYKVSNRFSGVPDRFSGSGSGTDFTLKISRVEAEDVGVYYCFQGSHVPLTFGGGTKVEIK	1720
Hu1B5-H4/Hu1B5-L2 (antibody, human IgG1, V domains shown, Human IgG1 FES (L234F, L235E, P331S) and human Ig kappa constant domains) VH: EVQLVQSGAEVKKPGASVKVSCKTSGFTFTRFWMNWVRQAPGQGLEWIGRIDPYDSETQYNHKFWDRATLTVDKSSSTVYMELSSLRSEDTAVYYCGRSLYGKGDYWGQGTTVTVSS VL: DVVMTQSPLSLPVTLGQPASISCRSSQSIVHSNGNTYLEWYQQRPGQSPRRLIYKVSNRFSGVPDRFSGSGSGTDFTLKISRVEAEDVGVYYCFQGSHVPLTFGGGTKVEIK	263

Query: // Input: Hu1B5-H1/Hu1B5-L4 (antibody, human IgG1, V domains shown, Human IgG1 FES (L234F, L235E, P331S) and human Ig kappa constant domains) VH: QVQLVQSGAEVKKPGASVKVSCKASGFTFTRFWMNWVRQAPGQGLEWMGRIDPYDSETQYNHKFWDRVTMTRDTSTSTVYMELSSLRSEDTAVYYCGRSLYGKGDYWGQGTTVTVSS VL: DVVMTQSPLSLPVTPGEPASISCRSSQSIVHSNGNTYLEWYLQKPGQSPQLLIYKVSNRFSGVPDRFSGSGSGTDFTLKISRVEAEDVGVYYCFQGSHVPLTFGGGTKVEIK . Output its MFI only.
Response: 1570

Query: // Input: Hu1B5-H2.1/Hu1B5-L3 (antibody, human IgG1, V domains shown, Human IgG1 FES (L234F, L235E, P331S) and human Ig kappa constant domains) VH: EVQLVQSGAEVKKPGASVKVSCKTSGFTFTRFWMNWVRQAPGQGLEWIGRIDPYDSETQYNHKFWDRVTMTVDTSTSTVYMELSSLRSEDTAVYYCGRSLYGKGDYWGQGTTVTVSS VL: DVVMTQSPLSLPVTLGQPASISCRSSQSIVHSNGNTYLEWYQQRPGQSPRLLIYKVSNRFSGVPDRFSGSGSGTDFTLKISRVEAEDVGVYYCFQGSHVPLTFGGGTKVEIK . Output its MFI only.
Response: 1860

Query: // Input: Hu1B5-H3/Hu1B5-L2 (antibody, human IgG1, V domains shown, Human IgG1 FES (L234F, L235E, P331S) and human Ig kappa constant domains) VH: EVQLVQSGAEVKKPGASVKVSCKTSGFTFTRFWMNWVRQAPGQGLEWIGRIDPYDSETQYNHKFWDRATLTVDTSSSTVYMELSSLRSEDTAVYYCGRSLYGKGDYWGQGTTVTVSS VL: DVVMTQSPLSLPVTLGQPASISCRSSQSIVHSNGNTYLEWYQQRPGQSPRRLIYKVSNRFSGVPDRFSGSGSGTDFTLKISRVEAEDVGVYYCFQGSHVPLTFGGGTKVEIK . Output its MFI only.
Response: 231

Query: // Input: Hu1B5-H6/Hu1B5-L2 (antibody, human IgG1, V domains shown, Human IgG1 FES (L234F, L235E, P331S) and human Ig kappa constant domains) VH: EVQLVQSGAEVKKPGESLRISCKTSGFTFTRFWMNWVRQMPGKGLEWIGRIDPYDSETQYNHKFWDHATLSVDKSSSTVYLQWSSLKASDTAMYYCGRSLYGKGDYWGQGTTVTVSS VL: DVVMTQSPLSLPVTLGQPASISCRSSQSIVHSNGNTYLEWYQQRPGQSPRRLIYKVSNRFSGVPDRFSGSGSGTDFTLKISRVEAEDVGVYYCFQGSHVPLTFGGGTKVEIK . Output its MFI only.
Response: 359

Query: // Input: Hu1B5-H1/Hu1B5-L5 (antibody, human IgG1, V domains shown, Human IgG1 FES (L234F, L235E, P331S) and human Ig kappa constant domains) VH: QVQLVQSGAEVKKPGASVKVSCKASGFTFTRFWMNWVRQAPGQGLEWMGRIDPYDSETQYNHKFWDRVTMTRDTSTSTVYMELSSLRSEDTAVYYCGRSLYGKGDYWGQGTTVTVSS VL: DIVMTQSPDSLAVSLGERATINCRSSQSIVHSNGNTYLEWYQQKPGQPPKLLIYKVSNRFSGVPDRFSGSGSGTDFTLTISSLQAEDVAVYYCFQGSHVPLTFGGGTKVEIK . Output its MFI only.
Response: 481
